- Test system: HIV-1 (NL4-3 strain)
- protocol description: microbe, parasite or virus in culture
- Type: cell-based
- measurement context: Human immunodeficiency virus 1, NL43, 100% normal human serum (NHS); MT4-GFP cells infected with HIV-1 NL4-3; IP or IC50 from 4-parameter dose response curve; read-out: WILD TYPE CELL ASSAY Viking IP (100% NHS)
Each entry below lists one item and its recorded pIC50 value.
Keep in mind that pIC50 stands for -log10 of concentration in molar terms.

Consider the worked cases shown below.
| molecule | pIC50 |
| --- | --- |
| C[C@]12COCO[C@H]1Cn1cc(C(=O)NCc3ccc(F)cc3F)c(=O)c(O)c1C2=O | 6.91 |
| COCC[C@]1(C)C(=O)c2c(O)c(=O)c(C(=O)NCc3ccc(F)cc3F)cn2C[C@@H]1OC | 5.65 |
| CO[C@@]12CCCC[C@]1(C)C(=O)c1c(O)c(=O)c(C(=O)NCc3ccc(F)cc3F)cn1C2 | 5.39 |
| C[C@]12CCCO[C@H]1Cn1cc(C(=O)NCc3c(F)cc(F)cc3F)c(=O)c(O)c1C2=O (single isomer, unassigned) | 5.90 |
| C[C@@]12CCCO[C@@H]1Cn1cc(C(=O)NCc3cccc(Cl)c3F)c(=O)c(O)c1C2=O (single isomer, unassigned) | 7.14 |

Moving on to another molecule below.
INPUT: Need pIC50, item COCC[C@@]1(C)C(=O)c2c(O)c(=O)c(C(=O)NCc3cccc(Cl)c3F)cn2C[C@@H]1OC
OUTPUT: 6.32

* * *

- Tested on: HIV-1 (NL4-3 strain)
- protocol description: microbe, parasite or virus in culture
- Format: cell-based
- measurement context: Human immunodeficiency virus 1, NL43, 100% normal human serum (NHS); MT4-GFP cells infected with HIV-1 NL4-3; IP or IC50 from 4-parameter dose response curve; read-out: WILD TYPE CELL ASSAY Viking IP (100% NHS)
measured metric: pIC50
Scale note: pIC50 = -log10(concentration in M).

// below: answered molecules
| item smiles | study system | recorded result |
| --- | --- | --- |
| CC1(C)CCC[C@@]2(C)C(=O)c3c(O)c(=O)c(C(=O)NCc4ccc(F)cc4F)cn3C[C@@]12O | HIV-1 (NL4-3 strain) | 6.15 |
| COCCCO[C@]12CCCC[C@@]1(C)C(=O)c1c(O)c(=O)c(C(=O)NCc3ccc(F)cc3F)cn1C2 | HIV-1 (NL4-3 strain) | 5.84 |

Next up:
INPUT: Can you look up pIC50 on HIV-1 (NL4-3 strain) for CO[C@@]12CCCCC[C@]1(C)C(=O)c1c(O)c(=O)c(C(=O)NCc3ccc(F)cc3F)cn1C2 ?
OUTPUT: 6.06
